target desc: T1, Ep-CAM (UniProt P16422 24-265, limits assumed)
T1 construct: Amine coupled to a CM5 chip in the Biacore assays
T1 sequence (looked up): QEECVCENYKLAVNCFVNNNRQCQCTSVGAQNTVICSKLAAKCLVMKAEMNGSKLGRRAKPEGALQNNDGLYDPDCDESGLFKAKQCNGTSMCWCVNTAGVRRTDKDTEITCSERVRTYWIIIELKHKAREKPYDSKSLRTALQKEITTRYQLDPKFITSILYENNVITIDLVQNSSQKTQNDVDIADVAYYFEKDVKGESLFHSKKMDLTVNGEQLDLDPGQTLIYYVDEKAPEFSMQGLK
experiment notes: Biacore, Fab periplasmic extract
readout type: fold difference in affinity vs parental ING-1 (fold)
Note: unit fold is implicit; provide only the numeric part.

Below are worked cases with known answers.
binder | result
ING-1 light chain L99K (Fab, V domains shown, Fab, periplasmic extract) VH: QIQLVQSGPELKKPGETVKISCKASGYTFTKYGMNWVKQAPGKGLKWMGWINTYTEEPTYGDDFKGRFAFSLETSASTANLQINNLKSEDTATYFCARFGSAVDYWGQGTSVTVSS VL: DIVMTQAAFSNPVTLGTSGSISCRSSKSLLHSNGITYLYWYLQKPGQSPQLLIYQMSNLASGVPDRFSSSGSGTDFTLRISRVEAEDVGVYYCAQNLEKPRTFGGGTKLEMKR | 0.02
ING-1 light chain P100D (Fab, V domains shown, Fab, periplasmic extract) VH: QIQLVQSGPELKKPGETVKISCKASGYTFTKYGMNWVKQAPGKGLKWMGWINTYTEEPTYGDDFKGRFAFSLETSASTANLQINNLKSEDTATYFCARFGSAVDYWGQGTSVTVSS VL: DIVMTQAAFSNPVTLGTSGSISCRSSKSLLHSNGITYLYWYLQKPGQSPQLLIYQMSNLASGVPDRFSSSGSGTDFTLRISRVEAEDVGVYYCAQNLELDRTFGGGTKLEMKR | 0.02
ING-1 light chain P100E (Fab, V domains shown, Fab, periplasmic extract) VH: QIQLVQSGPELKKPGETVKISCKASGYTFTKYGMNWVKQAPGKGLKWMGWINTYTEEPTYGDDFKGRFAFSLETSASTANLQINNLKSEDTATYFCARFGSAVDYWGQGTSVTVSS VL: DIVMTQAAFSNPVTLGTSGSISCRSSKSLLHSNGITYLYWYLQKPGQSPQLLIYQMSNLASGVPDRFSSSGSGTDFTLRISRVEAEDVGVYYCAQNLELERTFGGGTKLEMKR | 0.06

Exercise: fold difference in affinity vs parental ING-1 for ING-1 light chain P100N (Fab, V domains shown, Fab, periplasmic extract) VH: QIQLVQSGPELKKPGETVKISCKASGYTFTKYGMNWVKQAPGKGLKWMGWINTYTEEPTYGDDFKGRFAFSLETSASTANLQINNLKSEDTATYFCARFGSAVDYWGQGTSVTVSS VL: DIVMTQAAFSNPVTLGTSGSISCRSSKSLLHSNGITYLYWYLQKPGQSPQLLIYQMSNLASGVPDRFSSSGSGTDFTLRISRVEAEDVGVYYCAQNLELNRTFGGGTKLEMKR ?
Key: 0.05

Exercise: # iterate: ING-1 light chain T36D (Fab, V domains shown, Fab, periplasmic extract) VH: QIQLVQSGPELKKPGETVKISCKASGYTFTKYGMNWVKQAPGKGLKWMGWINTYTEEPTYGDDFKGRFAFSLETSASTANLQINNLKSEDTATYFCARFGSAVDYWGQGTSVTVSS VL: DIVMTQAAFSNPVTLGTSGSISCRSSKSLLHSNGIDYLYWYLQKPGQSPQLLIYQMSNLASGVPDRFSSSGSGTDFTLRISRVEAEDVGVYYCAQNLELPRTFGGGTKLEMKR
Key: 0.05
